System: Escherichia coli TOP10;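 also: peptides expressed intracellularly from a pBAD plasmid library in pooled LB shake-flask culture, induced with 0.3% L-arabinose, DNA abundance read by NGS, three biological replicates, DESeq2 with apeglm shrinkage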
Experiment: shrunken log2 fold change of peptide-encoding DNA abundance (4.5 h post-induction vs induction); higher = less antimicrobial activity (less host growth inhibition)
Details: time post-induction: 4.5 h; library: site-saturation at positions 5, 18, 19, 20
Use -0.05 as the dividing line for shrunken log2 fold change, with the line itself on the satisfied side and lower values as not satisfied.

Problem: For this sequence, is measured shrunken log2 fold change -0.05 or higher? RRIRCRPPRLPRPRPRPLLYPRP
Solution: not satisfied

Problem: For this sequence, is measured shrunken log2 fold change -0.05 or higher? RRIRFRPPRLPRPRPRPLHMPRP
Solution: not satisfied

Problem: For this sequence, is measured shrunken log2 fold change -0.05 or higher? RRIRGRPPRLPRPRPRPFQRPRP
Solution: satisfied

Problem: For this sequence, is measured shrunken log2 fold change -0.05 or higher? RRIRNRPPRLPRPRPRPCIFPRP
Solution: not satisfied

Problem: For this sequence, is measured shrunken log2 fold change -0.05 or higher? RRIRERPPRLPRPRPRPPFRPRP
Solution: satisfied

Problem: For this sequence, is measured shrunken log2 fold change -0.05 or higher? RRIRIRPPRLPRPRPRPDIDPRP
Solution: not satisfied

Problem: For this sequence, is measured shrunken log2 fold change -0.05 or higher? RRIRMRPPRLPRPRPRPPNQPRP
Solution: satisfied

Problem: For this sequence, is measured shrunken log2 fold change -0.05 or higher? RRIRKRPPRLPRPRPRPKAAPRP
Solution: satisfied

Problem: For this sequence, is measured shrunken log2 fold change -0.05 or higher? RRIRSRPPRLPRPRPRPSVDPRP
Solution: satisfied

Problem: For this sequence, is measured shrunken log2 fold change -0.05 or higher? RRIRERPPRLPRPRPRPNDMPRP
Solution: not satisfied

Problem: For this sequence, is measured shrunken log2 fold change -0.05 or higher? RRIRCRPPRLPRPRPRPCMAPRP
Solution: not satisfied

Problem: For this sequence, is measured shrunken log2 fold change -0.05 or higher? RRIRERPPRLPRPRPRPLMIPRP
Solution: not satisfied

Problem: For this sequence, is measured shrunken log2 fold change -0.05 or higher? RRIRLRPPRLPRPRPRPDSMPRP
Solution: not satisfied

Problem: For this sequence, is measured shrunken log2 fold change -0.05 or higher? RRIRGRPPRLPRPRPRPMSQPRP
Solution: satisfied

Problem: For this sequence, is measured shrunken log2 fold change -0.05 or higher? RRIRCRPPRLPRPRPRPFHYPRP
Solution: satisfied

Problem: For this sequence, is measured shrunken log2 fold change -0.05 or higher? RRIRIRPPRLPRPRPRPHRHPRP
Solution: not satisfied

Problem: For this sequence, is measured shrunken log2 fold change -0.05 or higher? RRIRARPPRLPRPRPRPWNYPRP
Solution: not satisfied

Problem: For this sequence, is measured shrunken log2 fold change -0.05 or higher? RRIRMRPPRLPRPRPRPHWNPRP
Solution: not satisfied

Problem: For this sequence, is measured shrunken log2 fold change -0.05 or higher? RRIRVRPPRLPRPRPRPAKHPRP
Solution: not satisfied

Problem: For this sequence, is measured shrunken log2 fold change -0.05 or higher? RRIRPRPPRLPRPRPRPNWKPRP
Solution: not satisfied

Problem: For this sequence, is measured shrunken log2 fold change -0.05 or higher? RRIRYRPPRLPRPRPRPYFYPRP
Solution: not satisfied

Problem: For this sequence, is measured shrunken log2 fold change -0.05 or higher? RRIRKRPPRLPRPRPRPWQPPRP
Solution: satisfied

Problem: For this sequence, is measured shrunken log2 fold change -0.05 or higher? RRIRDRPPRLPRPRPRPSCHPRP
Solution: not satisfied

Problem: For this sequence, is measured shrunken log2 fold change -0.05 or higher? RRIRRRPPRLPRPRPRPHIPPRP
Solution: not satisfied

Problem: For this sequence, is measured shrunken log2 fold change -0.05 or higher? RRIRKRPPRLPRPRPRPCMNPRP
Solution: not satisfied

Problem: For this sequence, is measured shrunken log2 fold change -0.05 or higher? RRIRLRPPRLPRPRPRPSGCPRP
Solution: satisfied

Problem: For this sequence, is measured shrunken log2 fold change -0.05 or higher? RRIRVRPPRLPRPRPRPGSSPRP
Solution: not satisfied

Problem: For this sequence, is measured shrunken log2 fold change -0.05 or higher? RRIRFRPPRLPRPRPRPTNHPRP
Solution: not satisfied

Problem: For this sequence, is measured shrunken log2 fold change -0.05 or higher? RRIRRRPPRLPRPRPRPNQAPRP
Solution: satisfied

Problem: For this sequence, is measured shrunken log2 fold change -0.05 or higher? RRIRQRPPRLPRPRPRPGMGPRP
Solution: satisfied

Problem: For this sequence, is measured shrunken log2 fold change -0.05 or higher? RRIRIRPPRLPRPRPRPSWEPRP
Solution: not satisfied

Problem: For this sequence, is measured shrunken log2 fold change -0.05 or higher? RRIRGRPPRLPRPRPRPRQHPRP
Solution: satisfied
